Recorded IC50 values (Neprilysin (Homo sapiens)) are given below.
Field format: number, assumed µM, no unit text.

O=C(NCCc1cccc2ccccc12)[C@H](CC#Cc1ccccc1F)NCP(=O)(O)O :: 10.7

Enter reported IC50 observed with Neprilysin (Homo sapiens) for `O=C(NCCc1c[nH]c2ccccc12)[C@H](CC#Cc1ccc(F)cc1F)NCP(=O)(O)O` 9.7

---

molecular target: Endothelin-converting enzyme 1 (Homo sapiens, UniProt P42892); test: Inhibitory activity was assessed on CHO cells expressing recombinant human Endothelin-converting enzyme 1 (ECE-1).
Sequence (P42892 whole entry): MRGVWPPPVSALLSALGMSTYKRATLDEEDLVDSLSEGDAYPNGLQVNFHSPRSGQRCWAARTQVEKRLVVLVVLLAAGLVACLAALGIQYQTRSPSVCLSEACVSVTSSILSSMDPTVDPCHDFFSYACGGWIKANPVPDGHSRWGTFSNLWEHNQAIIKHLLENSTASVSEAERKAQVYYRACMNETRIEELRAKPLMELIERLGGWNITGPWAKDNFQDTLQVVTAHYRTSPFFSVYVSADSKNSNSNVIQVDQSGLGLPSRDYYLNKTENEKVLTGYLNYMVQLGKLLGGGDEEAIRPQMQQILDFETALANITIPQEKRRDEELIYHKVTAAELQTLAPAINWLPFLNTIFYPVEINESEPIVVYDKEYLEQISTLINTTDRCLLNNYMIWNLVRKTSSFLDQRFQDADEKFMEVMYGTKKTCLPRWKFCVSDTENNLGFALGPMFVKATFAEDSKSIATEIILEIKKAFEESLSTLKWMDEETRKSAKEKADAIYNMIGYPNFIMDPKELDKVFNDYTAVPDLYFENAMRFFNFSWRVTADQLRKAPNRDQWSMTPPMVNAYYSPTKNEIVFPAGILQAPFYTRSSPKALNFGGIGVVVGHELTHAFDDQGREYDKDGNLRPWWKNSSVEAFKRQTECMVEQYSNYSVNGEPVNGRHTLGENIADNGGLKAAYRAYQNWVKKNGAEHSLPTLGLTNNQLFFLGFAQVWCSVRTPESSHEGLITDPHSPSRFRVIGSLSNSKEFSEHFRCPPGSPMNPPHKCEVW
pIC50: −log10 of the molar value.
Returns Condition met if the recorded pIC50 is greater than or equal to 7, and Condition not met otherwise.

O=C(NCCc1ccccn1)[C@H](CC#Cc1ccc(F)cc1F)NCP(=O)(O)O :: Condition not met
O=C(NCCc1ccc2ccccc2c1)[C@H](CC#Cc1ccc(F)cc1F)NCP(=O)(O)O :: Condition met
O=C(O)[C@H](Cc1ccccc1)NC(=O)[C@H](CC#Cc1ccccc1F)NCP(=O)(O)O :: Condition met
O=C(NCCc1ccc(-c2ccccc2)cc1)[C@H](CC#Cc1ccccc1F)NCP(=O)(O)O :: Condition met
O=C(NCCc1cccc2ccccc12)[C@H](CC#Cc1ccc(F)cc1F)NCP(=O)(O)O :: Condition met
O=P(O)(O)C(CCc1cccc2ccccc12)N[C@@H](Cc1ccc(-c2ccccc2)cc1)c1nnn[nH]1 (some centres not stated) :: Condition met
O=C(O)[C@H](CC#Cc1ccccc1F)NC(=O)[C@H](CC#Cc1ccccc1F)NCP(=O)(O)O :: Condition met

Please examine the following record next.
Threshold query (pIC50 >= 7) on `O=C(O)[C@H](CC#Cc1ccccc1F)NCP(=O)(O)O` Condition not met
